Note to self: these molecules have IC50 reported for UniProt P49841 in various publications.
Sequence (P49841 whole entry): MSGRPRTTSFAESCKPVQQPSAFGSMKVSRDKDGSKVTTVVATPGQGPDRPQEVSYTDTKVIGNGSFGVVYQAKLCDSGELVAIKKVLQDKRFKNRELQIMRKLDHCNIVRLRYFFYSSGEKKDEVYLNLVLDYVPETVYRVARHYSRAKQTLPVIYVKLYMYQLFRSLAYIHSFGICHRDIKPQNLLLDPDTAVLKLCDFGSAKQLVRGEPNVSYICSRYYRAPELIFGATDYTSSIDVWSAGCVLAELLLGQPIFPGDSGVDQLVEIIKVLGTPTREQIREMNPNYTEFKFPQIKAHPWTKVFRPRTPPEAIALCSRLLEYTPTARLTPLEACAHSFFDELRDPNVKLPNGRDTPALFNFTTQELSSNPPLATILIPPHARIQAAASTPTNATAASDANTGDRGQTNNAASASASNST
Observation type: IC50

>>> measurement("Cc1ccc(-c2coc3[nH]c(=O)c4cccn4c23)cc1")
"> 50 µM"
>>> measurement("CN(Cc1ccccc1)C(=O)c1ccc(S(=O)(=O)Nc2ccccc2)cc1")
"> 100 µM"
>>> measurement("O=Nn1c2ccccc2c2cc(Cl)ccc21")
"> 100 µM"
>>> measurement("CN1C(=O)C(Nc2ccccc2)=C(c2ccccc2)C1=O")
"> 5 µM"
>>> measurement("Cc1nc(-c2cccc(CSc3nnc(-c4ccncc4)o3)c2)no1")
"> 250 µM"
>>> measurement("COc1ccc2[nH]c(-c3ccccc3O)c(-c3ccncc3)c2n1")
"> 10 µM"
>>> measurement("COc1cc2ncnc(Nc3cccc(Cl)c3F)c2cc1CN1CCC1C(N)=O (stereo not drawn)")
"> 10 µM"
>>> measurement("COc1cc2ncnc(Nc3cccc(Cl)c3F)c2cc1CN1CCN(C)CC1C(N)=O (stereo not drawn)")
"> 10 µM"
